Tested on: HUVEC cells
Assay: MTT assay, inhibition of HUVEC proliferation
Type: cell-based
Conditions: HUVEC growth, 0–1000 nM, 24 h, read-out: IC50 (24 h)
Experimental: The HUVEC cell line was purchased from the Pasteur Institute of Iran and was transferred in DMEM media enriched with 10% Foetal Bovine Serum (FBS, Gibco). The cells were then added into T25 cell culture flasks and incubated at a temperature of 37 °C in the presence of 5% CO2. After 3–5 days, confluency of the cells was assessed. At 90% of confluency, cells were removed from the flask by trypsin treatment until their use in following experiments. […]
Square brackets hold non-standard residues; d marks the D form. Ends that are not written are not given here. Abu = CC[C@H](N)C(=O)O
measured metric: IC50 (nM)
# output: bare number, implied unit nM

Sample YY[Abu]AARAWSPYSSTVDAGDFRYWGQ-NH2 [peptide, designed 25-mer peptide from the CDR3 region of the VEGF nanobody] ; IC50 observed: 350
